molecular target: FES (Homo sapiens); construct: purchased in-house thermal shift (DSF) kinase panel (SGC Frankfurt); Promega NanoBRET for AURKA/B/C; test: Thermal shift assay; format: binding; conditions: compound 10 µM; n = 3; read-out: ΔTm FES
Sequence (P07332 whole entry): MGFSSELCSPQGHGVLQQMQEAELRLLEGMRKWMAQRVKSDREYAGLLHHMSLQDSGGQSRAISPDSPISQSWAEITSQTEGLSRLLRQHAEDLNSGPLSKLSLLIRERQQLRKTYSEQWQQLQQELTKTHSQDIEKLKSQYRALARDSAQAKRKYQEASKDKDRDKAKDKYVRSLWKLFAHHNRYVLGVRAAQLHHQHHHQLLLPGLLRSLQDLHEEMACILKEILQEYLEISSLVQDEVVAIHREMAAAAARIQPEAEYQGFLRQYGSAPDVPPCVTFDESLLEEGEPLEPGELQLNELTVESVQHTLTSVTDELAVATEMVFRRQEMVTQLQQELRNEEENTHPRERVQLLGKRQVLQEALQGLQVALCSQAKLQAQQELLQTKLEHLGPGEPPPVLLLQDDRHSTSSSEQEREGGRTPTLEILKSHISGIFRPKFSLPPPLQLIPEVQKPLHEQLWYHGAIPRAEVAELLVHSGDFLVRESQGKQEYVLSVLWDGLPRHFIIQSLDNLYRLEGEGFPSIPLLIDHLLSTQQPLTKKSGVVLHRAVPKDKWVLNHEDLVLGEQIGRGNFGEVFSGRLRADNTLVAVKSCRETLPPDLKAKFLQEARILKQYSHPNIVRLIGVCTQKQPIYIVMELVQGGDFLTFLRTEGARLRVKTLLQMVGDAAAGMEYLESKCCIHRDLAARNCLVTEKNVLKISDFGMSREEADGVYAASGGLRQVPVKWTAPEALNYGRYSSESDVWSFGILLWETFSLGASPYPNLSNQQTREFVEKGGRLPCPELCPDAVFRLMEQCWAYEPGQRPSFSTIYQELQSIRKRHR
Experimental endpoint: ΔTm at 10 µM (°C)
Give your result in °C as a bare value.

Study these solved cases before continuing.
Task: Sample NC(=O)Cc1ccc(Nc2ncc(F)c(Nc3ccc(C(=O)Nc4ccccc4Cl)cc3)n2)cc1 [ERJ2-06] — what was its ΔTm at 10 µM?
Output: 1.4

Task: # input compound: CCN1CCN(C(=O)Cc2ccc(Nc3ncc(F)c(Nc4ccc(C(=O)Nc5ccccc5)cc4)n3)cc2)CC1 [ERJ2-11] ; wanted: its ΔTm at 10 µM
Output: 1.7

Task: What measured ΔTm at 10 µM goes with CCN1CCN(C(=O)Cc2ccc(Nc3ncc(F)c(Nc4ccc(C(=O)O)cc4)n3)cc2)CC1 [ERJ2-12] ?
Output: 0.4

***
Task: Which ΔTm at 10 µM is listed for O=C(Cc1ccc(Nc2ncc(F)c(Nc3ccc(C(=O)Nc4ccccc4Cl)cc3)n2)cc1)NCCN1CCOCC1 [ERJ2-04] ?
Output: 0.5

// provenance: paper PMC8776063
